Listed below: logD values for each entry.
Experiment: method code SF-MS, from DOI: 10.1016/j.fluid.2014.01.017
Conditions: pH 7.6
quantityName: logD

smilesEntry	measuredResult
CCCCCCCC=O	2.53
CCCC/C=C/C=O	2.06

====

Assay: method code RP-HPLC, from DOI: 10.1021/jm970292n, PMID: 9371243
Catalogue of molecules with associated logP
quantityName: logP

smilesEntry	measuredResult
COc1cccc2cc3cccc(OC)c3c(OC)c12	4.1
O=C1c2c(O)cccc2C(c2ccccc2)c2cccc(O)c21	3.81

====

List of logP values.
Assay: method code SF-AS, from PMID: 7912440

compound	logP
CC(=O)c1cc(C(C)(C)C)ccc1OCC(O)CN (configuration not stated)	0.38
CC(=O)c1cc(C(C)C)ccc1OCC(O)CN (configuration not stated)	0.1

====

Consider the following molecules and their measured logD readings.
Details: pH 5.6

smilesEntry	logD
NS(=O)(=O)c1ccc(O)cc1	0.06
CCOc1cccc(O)c1	1.98

====

quantityName: logP

smilesEntry	measuredResult
Cc1[nH]cnc1CSCCNc1cc[nH]c(=O)n1	-0.4

====

Experiment: method code SF-HPLC, from DOI: 10.1080/02772248909357333
quantityName: logP

smilesEntry	quantityName	measuredResult
COc1nn(CSP(=S)(OC)OC)c(=O)s1	logP	2.22

====

Kind request: treat 2 as inclusive, so logP at 2 or higher is T, anything lower is F.

molecule	groupLabel
CCN(CC)CCNC(=O)c1ccc(NS(C)(=O)=O)cc1	F
CCC(=O)C(CC(C)N(C)C)(c1ccccc1)c1ccccc1 (stereo unspecified)	T
Cc1ccccc1OCC(O)CNCCOc1ccc(C(N)=O)cc1 (stereo unspecified)	T
CC(C)NCC(O)c1ccc(NS(C)(=O)=O)cc1 (stereo unspecified)	F
COc1ccc(CCN(C)CCCC2(c3ccc(OC)c(OC)c3)S(=O)(=O)CCCS2(=O)=O)cc1OC	T
Cc1ccccc1N1C(=O)c2cc(S(N)(=O)=O)c(Cl)cc2NC1C (stereo unspecified)	F

====

quantityName: logP

smilesEntry	measuredResult
CCN1CCc2cc(S(=O)(=O)Nc3ccc(F)cc3F)cc(NC(C)=O)c21	1.4

====

Measured logP of individual entries
quantityName: logP

smilesEntry	quantityName	measuredResult
O=C(NNC(=O)c1ccc([N+](=O)[O-])cc1)c1ccc([N+](=O)[O-])cc1	logP	2.07
O=C(NN(C(=O)c1ccc([N+](=O)[O-])cc1)c1ccccc1)c1ccc([N+](=O)[O-])cc1	logP	4.18
Cc1ccc(C(=O)NNC(=O)c2ccccc2)cc1	logP	1.88
COc1ccc(C(=O)NNC(=O)c2ccccc2)cc1	logP	1.6

====

Below, each entry is listed alongside its reported logP.
quantityName: logP

smilesEntry	quantityName	measuredResult
CN(C(=O)NC(C)(C)c1ccccc1)c1ccccc1	logP	3.01
CCSc1nnc(C(C)(C)C)c(=O)n1N	logP	2.08

====

Assay: method code SF-AS, from DOI: 10.2116/analsci.8.761
Settings: pH 6.0

smilesEntry	logD
OCc1ccc(O)cc1	0.48

====

Test: method code SF-AS, from DOI: 10.1016/0223-5234(93)90135-2
Settings: pH 12.0

smilesEntry	logD
NCCc1nccs1	0.16

====

smilesEntry	logP
O=C1OC2(c3ccc(O)cc3Oc3cc(O)ccc32)c2ccccc21	4.3

====

smilesEntry	logP
CON=C(C#N)C(=O)NCC(=O)O	-0.58
